Values compiled from the supplement of paper PMC9170038.

test system: K4 kissing-loop RNA reporter; assay: apparent KD of K4 kissing-loop reporter; higher = weaker reporter binding; settings: Eterna round: R107; input ligand: theophylline 20 uM;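 further: bound reporter read as fluorescence of individual clusters on recovered sequencing chips by microscopy, with normalized cluster intensities fitted with a binding model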
Label scheme for apparent KD of K4 kissing-loop reporter: lower than 300 nM is Not met, 300 nM and above is Met.

sequenceCode	groupLabel
AAGCAGUCACUCGAAACCAUCGAAGAUGGUCGAGGACCGGUACGGCCGCCACUCGGAGUGAUGUUCCGAAGACUGCAAAAUAAAA [#SwitchBubble 10]	Not met
CGUUUAUAGCAGGAUACCAGUGCGGAUAAGGUGCGUUAAUAGUAGAGUGAUGUUCUAAAGUACCCUUGGCAGCUUAGAGUGAGUG [#21 K4 Theophylline B Exclusion]	Not met
CUAGGCAACACAGGAUAUGUCCGAGUGAUGUUCGAGCCUUUCCAUUGACGAAAUUAAUGGUGGGUGACAGAAGGGUGAGUGCUGA [Xezaqu]	Met
AAGUAAUUAAUAAUUUAUAUAAGUUAAACAGAGGAUAUGCAUUAUUGCAGAAGGCUGAAUGCAGUGAUGUUGCAAUGAUUAUUUA [JR_SSFMNA_Sub001]	Not met
UGUACCGAGUCAGGAUAUCAUAAUAAUGCAGUGAUGUUGCAAUAACGACUGACAAAGUCGGUCGAUUGAGAAGGGACUUGGUACU [FmnBS 6 #SwitchBubble #StaticStem]	Not met
UUCAUCGUGGUUCGCGGGUGGUAUGAAAAGCGAGGACCGGUACGGCCGCCACUCGGUUCCGCUUGUUGAGUGAUGUUCAAUAUUU	Met
GGGACGCUAGCUCGAAUGUAGUGAUUUGAUACCAGCCUGUCACUUGGCCCUUGGCAGCAAAGCAGAGUGAUGUUCUGACCAACCU [theeternabot_sameState_KL_Theo_A_47]	Met
GGUAGCAUGGCGGCCGCCACUCAUCGCCUCCCAUCGUCGGGAAGAAUAAGUGUAGUGAUGUUACAGAGGACCGGGCCAUGCUACC	Met
UGUCGUUCUAGUGAUGUUAGGACAGUUAUGAAGGAUAUACACACUCGUAGAAGGUCAGCUGCGGAAUGGCGAUUACGGUGAUUCG [theeternabot_sameState_KL_FMN_A_39]	Not met
UGGCGGCAAGGGUUAUUGGAAAGUAUUCGACGAGGACCGGUACGGCCGCCACUCGAACACCAGUGAUGUUGGUCUGGCUUAAGCC [Exclusion Tryptophan A GF 21]	Not met
CGAGAGCUCUUGUUUGGAUGUGUUUUAUGGCGAGGACCGGUACGGCCGCCACUCGGGUGAUGUUAGUGAUGUUGAUGUAGUGAUG [qzxmullin]	Not met
GAUUGAGGAAACUCGAUCUUAUAUCCUAGGCAGGAUAUGCGGAAACGCAGAAGGGCCACCUAGCAGUGAUGUUGCAAGCGAAAGC [Ex FMN A 5]	Met
AUUGUCGGAGUCUGUGCUGACUGACGAGCAAAGGAUAUGUUAUUAAACAGAAGGUUGUGCUGCUUAAGUGAUGUUUUUGGAGCUA [theeternabot_sameState_KL_FMN_A_26]	Not met
AAACAAGAUGCAGGAUAUACGGACCCAGUGAUGUUGGGUAGAAUUGUCCCGGCAAUCCUUGUGGCAGUAGAAGGGCAAUAAAAGA [Gexeraora]	Not met
AGGUUUUGAUUAGGAUAUGCACUGACGACGAGAAUAUAGUGAUGUUAUAUAAUAGGAAUUAGUAGAGUAGAAGGGAUUGAGGUUU [SSFMNB.W]	Met
UGACUACAAAGGAAAUAAUCCUAGUGAUGUUAGGAUAUGCUGAUAAGCAGAAGGAACUGAGAUCGAAAGAUCUCAAAUGUAGUCU [FmnAX 26 Mat Inspired #SwitchBubble #StaticStem #K4Early]	Not met
GGCCCGGGCGCGGCCGCCACUCCCUCGUACCGAAAGGUAUGAUACCGAGUGAUGUUCGGUUGGAGGAGGACCGGGCGCCCGGGCC [#2 Exclusion - Tryptophan B Attempt #4 (HarryS)]	Not met
UUAGAGAUCUCAGGAUAUGAGUGAUGUUGGUAUCAAGAUCUGAGAUAGAAUUCUAUCUCAGAUCAAUCAGAAGGGAGAUCUCAUU [AK2.1 Exc FMN B]	Met
AAUAAAAUCACGGCCGCCACUGAUUAGCAUAUUAGGAGUGAUGUUUCUAUGACUAUAUAAUUGAACAGGACCGGGUGAAUAUUUA [#20 K4 Tryptophan B Exclusion]	Met
UCCUAGGUCUUCAGGCGAAAGCCCUGCGAAGGAGCGUGCGAAAGCACAGGUAGGUCGCGCAGUGAUGUUGCACCUAGGUAAUAAA [#SwitchBubble 21 #K4Late]	Not met
AGACUACCACACUGUCAAUAGACAGUGUACUAGGAUAUGCUGAUAAGCAGAAGGAGUGAUGUUCCCAGGUAGUCAAUAAAAUAAU [FmnAX 13 U28+C66]	Not met
GCAGUGAUGUUGCGGAUGUACAGUGGAGUGCGAGGACCGGUACGGCCGCCACUCGUACAGAACAAGCUAAUACAUCGAUAGGUGA [XI]	Met

###

tested on: MS2 coat protein; assay: apparent KD of MS2 coat protein; higher = weaker reporter binding; settings: Eterna round: R107; input ligand: none
Classes by apparent KD of MS2 coat protein: lo (below 0.04 µM), med (0.04 µM to below 0.05 µM), hi (0.05 µM or more)

sequenceCode	groupLabel
GGACUAACCAGAAGGAGCGACACGCAGAAACUGCAAAUUCCUCUGCACGAGGAUCACCCGUGUCAGGUAGGUCGCUGGUUAGUCG	lo
AAUAAUAACAUGGGUGCACGAGUGGCAUAACGAGGACCGGUACGGCCGCCACUCGAACAUGAGGAUCACCCAUGUAGCCACUCGA [M'-T'-T-MS2-T'' - Design 4]	hi
AAAUAAAUACAUGAGGAUCACCCAUGUGAAGGAGCGCCCGUUAGGGCAGGUAGGUCGCACAUGAACUCCAAAGUGCAAAAGCACA [ArgEX 17 #OpenEnded]	lo
UCACAUGAGGAUCACCCAUGUGUCAGAGAAGGAGCGGCCGCAAGGCCAGGUAGGUCGCUCGGGUAUGGUGAGGUUCACCCGUGUG [#1 Exclusion - Arginine A Attempt #13 (Inspired by cyborg)]	med
ACUACAUGAGGAUCACCCAUGUGUACUGAAGGAGCGGCGGAAACGCCAGGUAGGUCGCAGUACACCUCAACCAGCGGUCCUAAGU [EAA NP+V+V2 #1]	lo
AAUAAACAUGAGGAUCACCCAUGUAUGGAAGGAGCGGUGAAUAAACCAGGUAGGUCGCCAGUGUGAGGGUCAUCUAUGUAAUCAA [Exclusion - Arginine A (Freestyle 3)]	med
GUCUGUGACUGAAGGAGCGACAUGAGGAUCACCCAUGUCUCCCGUUAUGGGAGUUCCUUAGGUCAGGUAGGUCGCAGUCACAGAC [#1 Exclusion - Arginine B Attempt #28 (Inspired by Omei)]	hi
ACGUAAUGCAGAAGGAGCGUCGACCUCUUACAUGAGGAUCACCCAUGUUGCAUGGUUGUACGACAGGUAGGUCGCUGAAGUACGA [#05 Exclusion - Arginine B]	lo
AAAGAACAUGAGGAUCACCCAUGUACCGAAGGAGCGGCGAAGAAGCCAGGUAGGUCGCGGAACAUGAAGCGAUUAAGAAUUAAUU	lo
GAUCGAUCAUAGUACGAUCGUUUUGUGGAAGGAGCGCAGAGGACUGCAGGUAGGUCGCCACAUGAGGAUCACCCAUGUCAGGAUU [XARG-A 24]	hi

###

system: MS2 coat protein; test: apparent KD of MS2 coat protein; designed switch direction (-1 OFF switch, 1 ON switch): -1; higher = weaker reporter binding; details: input ligand: none
# apparent KD of MS2 coat protein per entry
readoutName: apparent KD of MS2 coat protein (nM)

sequenceCode	unitDescriptor	measuredNumber
UCCUCACAUGAGGAUCACCCAUGUUAGGAUAUCUUAUAGAGCUUGAGACAGUUCUUUAAGAGAAGGAACUGGGC [Exclusion 1 (MOD2.2 of Edarti)] (Eterna round: R97, puzzle: Exclusion 1)	nM	115
GGGCUCGGUCUUCCGGCUGGGUCCACAUGAGGAUCACCCAUGUAGGAUAUCCCGGCUGCCGGCCGGGAGAAGGGCGUGUGUUUC [-39.8, -36.9 kcal, 14% A] (Eterna round: R96, puzzle: Exclusion NG 3)	nM	21.5
ACAUGUAAUGUAGGAUAUUUUACACAUGAGGAUCACCCAUGUGACCAGAGGCUUUACUAUGAGUAAAAGAAGGGUAUGUACAUG [Ex NG2 #60] (Eterna round: R96, puzzle: Exclusion NG 2)	nM	54.2

###

system: MS2 coat protein; assay: apparent KD of MS2 coat protein; designed switch direction (-1 OFF switch, 1 ON switch): -1; higher = weaker reporter binding; details: input ligand: none
readoutName: apparent KD of MS2 coat protein

sequenceCode	result
UAUGGUAAAGUCAGGAUAUACGUACGUCGUUCUAGGUAGAAGGGACAUGAGGAUCACCCAUGUAUGAUAGUAAA [Ex4 #35] (Eterna round: R97, puzzle: Brourd's mod of Exclusion 4)	41.6 nM
UAUUGUUUUUUUUUAAAUUACAUGAGGAUCACCCAUGUUUUUUUUUUUUUGGUGAUUAUUUUUUGUCUUUUUUUUUU [Jieuxbot 037 - Jieux - Sensor v2, turn-off variant] (Eterna round: R96, puzzle: Sensor v2, turn-off variant)	43.3 nM
AUUCGGAUAGGAUAUACUUGAGGAUCACCCAAGUGUUUGAACUAUCGUGAUCUGAAGAGUAGAAGGAUCAUCAU [Atquedzaed] (Eterna round: R97, puzzle: Exclusion 3)	90.7 nM
CUUUUGUGAGGAUAUUGGUAGUAAAUAAAUAAAAUUAUUACCGAGAAGGUACAUGAGGAUCACCCAUGUUCCUC [Salish 062 v18] (Eterna round: R97, puzzle: Exclusion 4)	18.2 nM
GAGUAGUGAGGAUAUGCAAUGAUCAUCGUACGAUGAGGCUGACAUGAGGAUCACCCAUGUAGAAGGCGCUGAUC [EX2 #18] (Eterna round: R97, puzzle: Exclusion 2)	75.2 nM
